assay target: DRB1*0404 (DR4w14)
protocol details: binding to purified HLA
pIC50: −log10 of the molar value.
endpoint label: pIC50

1. NGIEWAIANNMDVIN [BPN' Y217L .109]
6.78
2. SYPARYANAMAVGAT [B. lentus .160]
5.26
3. GTVAALNNSIGVLGV [BPN' Y217L .70]
8.24
4. GSISYPARYANAMAV [B. lentus 157]
5.12
